- System: VDR homodimer (NR concentration 270 nM)
- Measurement Description: PBM binding z-score (relative to random genomic background probes); higher = stronger binding; sequences stand for … in GC…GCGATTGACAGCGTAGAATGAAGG
Rule: PBM binding z-score under 1 gives False, otherwise True.

[
  {
    "Biosequence": "CGACCTAGGTCAAAGGACAGTGAAAGGCGACGTA",
    "Label": "False"
  },
  {
    "Biosequence": "TCTAGTAGGTTACGGGGGCATTCAGGGATGAAGA",
    "Label": "True"
  },
  {
    "Biosequence": "CGAACTAGGTAAAGGACAGTGAATCTCCGCACGC",
    "Label": "False"
  },
  {
    "Biosequence": "GGAACGAGGGCATTCGAGTTGATAGCATGGCGAT",
    "Label": "True"
  },
  {
    "Biosequence": "TAGCATAGGTCATGCGGGCCAGTATAGTGTCGGC",
    "Label": "False"
  },
  {
    "Biosequence": "AGTCAAAGTTCATCTGGGTAACGTAAGATATGCT",
    "Label": "True"
  },
  {
    "Biosequence": "TCTCGGAGGACACGAAACGTCAGAGCTCGACATC",
    "Label": "False"
  },
  {
    "Biosequence": "ATACGTAGGTTATCGGGTCATTCAGTTTGCGCAT",
    "Label": "True"
  },
  {
    "Biosequence": "CCGAGCAGGTTACGAGGGGGCATTCAGTGCGAAT",
    "Label": "True"
  },
  {
    "Biosequence": "CGATCTAGGTCACCAGGACAGTGAAGAGGTTGGA",
    "Label": "False"
  },
  {
    "Biosequence": "CATACAGGGTAAGCTAGGCCAGAGTAGGGACGGC",
    "Label": "False"
  },
  {
    "Biosequence": "CGTCCAAGGTCATAGGAGTTCAGTGAAGACAGAT",
    "Label": "True"
  },
  {
    "Biosequence": "TTACCAAAGTGAAAGGTCGTTGATGCACGCCTTG",
    "Label": "True"
  },
  {
    "Biosequence": "ATATGTAGCTTAAGGGTCATTCAGGTTGGTTCGC",
    "Label": "True"
  },
  {
    "Biosequence": "CGACCTAGGTCACCAGGACAGTGAAGAGGTTGGA",
    "Label": "False"
  },
  {
    "Biosequence": "CGTCAAAGTTCAAGGTTACGTAACAGAAAGCAGC",
    "Label": "True"
  },
  {
    "Biosequence": "CGTCAAAGTTCAAGTTAACGTAACAGAAAGCAGC",
    "Label": "True"
  }
]
